Examples of compounds with documented growth follow.
System: ACHN renal
assayDetails: NCI-60 one-dose screen, 48 h (100 = growth as untreated, 0 = no growth, -100 = all killed)
runParameters: 10 µM
This is part of a sample that, as a whole, favours compounds with a hit. Of some 83,000 tested, about 20% had one in any assay.
Respond numerically; units are % and should not be typed.

Some compounds with known growth results, for comparison:
• O=C(c1ccc(-n2c(=O)[nH]c3ccccc3c2=O)cc1)N1CCOCC1 = 103
• C=C1CCC2C3(C)COC(c4c(F)cccc4F)OC3CCC2(C)C1CC(O)C1=CCOC1=O (centres undefined) = 3.02
• CN1CCN(c2ccc(C(=O)/C=C/c3cc(C(F)(F)F)ccc3Cl)cc2)CC1 = -96.8
• O=c1[nH]c2ccccc2cc1CSc1ccc(Nc2nccc(-c3ccc(C(F)(F)F)cc3)n2)cc1 = -29.1
• Cc1ccc(-c2cc(C(=O)N=Nc3c(O)[nH]c4ccccc34)c3ccccc3n2)cc1 = 25.8
• CCN(CC)CCOc1ccc(C(=C(C)c2ccccc2)c2ccc(OCCN(CC)CC)cc2)cc1 = -13.3
• C/C(=C\CC/C=C(\C)CC/C=C(\C)CC[C@@H](O)C(C)(C)O)CC/C=C(\C)CC[C@@H](O)C(C)(C)O = 37.5
• Cc1ccc2nc(-c3ccc(-c4nnc(SCC(=O)Nc5ccc(Br)cc5)o4)cc3)[nH]c2c1 = 67.8

Now for another entry.
Ask | Using the record for O=C(CSc1nnc(-c2c[nH]c3ccccc23)n1-c1ccccc1)Nc1ccc(C(=O)/C=C/c2cccc([N+](=O)[O-])c2)cc1 , report its growth.
Reply | 74.3
